Let's look at some binders and their measured Kd.
TESTED ON: T1, recombinant LILRB1 (human, UniProt Q8NHL6 24-461)
T1 construct: LILRB1-Fc proteins were also made; also called LILRB1 recombinant proteins
T1 sequence (Q8NHL6 24-461 limits assumed): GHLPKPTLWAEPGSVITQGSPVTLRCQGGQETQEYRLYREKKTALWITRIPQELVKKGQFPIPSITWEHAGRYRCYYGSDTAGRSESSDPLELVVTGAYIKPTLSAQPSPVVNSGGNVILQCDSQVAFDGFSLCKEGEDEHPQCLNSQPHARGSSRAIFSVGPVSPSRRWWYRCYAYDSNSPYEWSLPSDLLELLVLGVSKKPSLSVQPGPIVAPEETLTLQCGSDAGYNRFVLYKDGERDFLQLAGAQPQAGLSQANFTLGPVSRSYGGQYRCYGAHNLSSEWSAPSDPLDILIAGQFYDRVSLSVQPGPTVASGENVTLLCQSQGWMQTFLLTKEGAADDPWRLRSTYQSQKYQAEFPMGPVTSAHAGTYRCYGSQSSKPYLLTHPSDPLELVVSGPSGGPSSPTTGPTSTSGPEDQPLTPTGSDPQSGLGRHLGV
PROTOCOL DESCRIPTION: BLI (Octet RED96), antibody on biosensor, recombinant LILRB1 in solution;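 further: Background-subtracted sensorgrams fitted with a one-to-one binding model, KD taken as koff over kon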
Answer format: numeric, nM implied, no suffix.

Sample answers from the record:
| BINDER | EXPERIMENTAL ENDPOINT | OBS VALUE |
| --- | --- | --- |
| B1-#93 (antibody, V domains shown, recombinant rabbit IgG) VH: EQSVEESGGDLVKPGTSLTLTCTASGFSFSGNTICWVRQAPGKRPEWIACIYPSSTSITTYATWAKGRFTVSKTSSTTVTLQMTSLTAADTATYFCARRYAAFLTYGSGAFDPWGPGTLVTISS VL: ELDLTQTPASVSAAVGGTVTINCQASESIGSALAWYQQKPGQPPKLLIYSASALASGVPSRFKGSGSGTEYTLTISDLECADAATYYCQSYYGSGTTALDTFGGGTEVEIK | Kd | 8.54 |
| B1-#198 (antibody, V domains shown, recombinant rabbit IgG) VH: QSLEESGGGLVKPEGSLTLTCTASGFDLSNNYYICWVRQAPGKGLELIACVDSDLTDSADYASWAKGRFTISKTSSTTVTLQMTSLTAADTATYFCAGSGSGYYYYYGMDLWGPGTLVTISS VL: ELDMTQTPASVSEPVGGTVTIKCQASQSIGSYLAWYQQKPGQPPKLLAFYASTLKSGVPPRFKGSGSGTEFTLTISDLECADAATYYCQSNRLSSSDVNAFGGGTEVEIK | Kd | 0.0272 |
| B1-#72-1 (antibody, V domains shown, recombinant rabbit IgG) VH: QSVKESGGGLVQPEGSLALTCKASGIDLSNYWYMCWVRQAPGKGLEWIGCVATDSSRTHYATWAKGRFTVSKTSSTTVTLQMTSLTAADTATYFCARGSGASTNGVWWVMGDGMDLWGPGTLVTISS VL: ELVMTQTPSSVSAAVGGTVTIKCQASPSISTYLSWYQQKPGQPPKRLINRASTLASGVPPRFKGSGAGTQFTLTISDLECADAATYYCQNNYHSGSSNGGGVAFGGGTEVEIK | Kd | 3.14 |
| B1-#209 (antibody, V domains shown, recombinant rabbit IgG) VH: SQSVEESGGDLVKPGGTLTLTCTASRIDLNNYYYISWVRQAPGKGLEWIGVVATDSSVTWYASWAKGQFTISKTSSTTVTLQMTSLTAADTATYFCARGSGAATNGVWWVMGDGMDLWGPGTLVTVSS VL: ELVMTQTPASVSEPVGGTVTIKCQASQSISSYLSWYQQKPGQPPKRLIYKASTLASGVPSRFKGSGSGTEFTLTISGVQCADAATYYCQNNYHSGSSNGGGFAFGGGTEVEIK | Kd | 3.03 |
| B1-#176 (antibody, V domains shown, recombinant rabbit IgG) VH: QSLEESEGGLVKPGGTLTLTCTASGFSFSSSYCMCWVRQAPGKGLELIACIYTDSSGATYYASWAKGRFTISKSSSTTITLQMTSLTAADTATYFCARGWDYEDPGYTDTTYFSLWGPGTLVTVSS VL: ELDLTQTPSSVEAAVGGTVTIKCQASQTIYTNLAWYQQKPGQPPNLLIYAASTLASGVSSRFKGSGSGTEFTLTISDLECADAATYYCQSYYGSSTTGNGFGGGTEVEIK | Kd | 0.619 |

Request: Value lookup for Kd; key = B1-#27 (antibody, V domains shown, recombinant rabbit IgG) VH: EQSVKESGGGLVQPEGSLTLTCTVSGFSFSGSYWICWVRQAPGKGLEWIACIYGDSIATYYPNWAKGRFTISKTSSTTVTLQMASLTGADTATYFCARDRNGGSGAYGWDLWGPGTLVTISS VL: ELDLTQTPASVSEPVGGTVTITCQASQSISSYLSWYQQTPGQPPKLLIYKASTLASGVPSRFKGSGSGTEFTLTISDLECADAATYYCQSYYYISATVDNTFGGGTEVEIK
Result: 1.27

Request: Then this binder: B1-#74 (antibody, V domains shown, recombinant rabbit IgG) VH: QSLEESGGGLVKPGASLTLTCTASGFSLNRYYMCWVRQAPGKGLEWIGCIYSGSGSTYYASWAKGRFTISKTSSTTVTLQMTSLPAADTATYFCGRLDYRVIYAFNLWGPGTLVTISS VL: ELVLTQTPASVSAAVGGTVTINCQASQSIGSGNLAWYQQKPGQPPKLLIYLASTLASGVPPRFKGSGSGTEFTLTISDLECDDAATYYCQYTYYGTTYDNAFGGGTELEIK
Result: 16.1
